# Assay Method Text: probe aLefty1 binding on compound microarray – biochemical, small-molecule microarray, 635/667 nm fluorescence, primary screen (AID 1153);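 further: score merges spot fluorescence with signal-to-noise ratio from the scanned slide images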
# Conditions: higher = more signal
// map composite z-score to label using low bin = under 0.04, mid bin = from 0.04 up to 0.4, high bin = 0.4 and over

## Task Please classify: C=C(CCCC)/C(=C/C[C@@H](OC(C)=O)c1ccc(CO)o1)c1cnc2ccccc2c1
## Result low bin

## Task Please classify: O=C(NCc1ccc(F)cc1)[C@H]1C[C@H]2C(=O)N3CCC[C@H]3C(=O)N2[C@H]1c1ccc(O)cc1
## Result low bin

## Task Please classify: COc1ccc(C(=O)Nc2cccc(CN3C(=O)[C@]4(O[C@H](CC(=O)N5Cc6ccccc6C[C@H]5CO)[C@@H]([Si](C)(C)c5ccc(OC)cc5)[C@@H]4C)c4ccccc43)c2)cc1
## Result high bin

## Task Please classify: C=CCC(OC(C)=O)[C@@H]1[C@@H](N(Cc2cc3ccccc3o2)C(=O)c2cccc3ccccc23)c2cc(OCCCO)ccc2N1C(=O)c1ccc2ccccc2n1 (some centres undefined)
## Result low bin

## Task Please classify: CCCC=C(CCC)[C@@H](NC(=O)OCC(C)C)c1ccc(C(=O)OC)cc1
## Result high bin

## Task Please classify: O=C(O)[C@H](Cc1ccccc1)n1cc(C2(O)CCCCC2)nn1
## Result high bin

## Task Please classify: C=C(/C(=C/C[C@@H](OC(C)=O)c1cccc(OCCO)c1)c1cnc2ccccc2c1)C(C)C
## Result mid bin

## Task Please classify: COC(=O)C(CC#Cc1ccc2c(c1)[C@]1(C(=O)N2)[C@H](c2ccc(OCCO)cc2)N2[C@H](c3ccccc3)[C@H](c3ccccc3)OC(=O)[C@H]2[C@@H]1C(=O)N1CCCCCCC1)C(=O)OC
## Result high bin

## Task Please classify: CCCC=C(CCC)[C@@H](NC(=O)c1ccc(C(F)(F)F)cc1)c1ccc(C(F)(F)F)cc1
## Result high bin

## Task Please classify: CN1C(=O)C2C(C1=O)C1C=C(c3ccc(CO)cc3)C2C(C2CC2)N1C (centres undefined)
## Result low bin

## Task Please classify: O=C1C2C=CC(C(O)c3cccs3)N(Nc3ccc([N+](=O)[O-])cc3)C2C(=O)N1c1ccccc1 (centres undefined)
## Result low bin

## Task Please classify: COc1ccc(C(O)C2C=CC3C(=O)NC(=O)C3N2Nc2ccc(Cl)cc2Cl)c2ccccc12 (centres undefined)
## Result mid bin

## Task Please classify: CC(C)C(O)C1C=CC2C(=O)NC(=O)C2N1Nc1ccccn1 (centres undefined)
## Result mid bin

## Task Please classify: COC(=O)[C@@]1(Cc2ccc(OC)cc2)[C@H]2c3cc(C(=O)N4CCCC4)n(Cc4ccc(Cl)c(C(F)(F)F)c4)c3C[C@H]2CN1C(=O)c1ccccc1
## Result high bin

## Task Please classify: C#CCN1[C@@H](Cc2ccccc2)C(=O)O[C@H](Cc2ccccc2)[C@@H]1/C=C/C1CC1
## Result low bin

## Task Please classify: C=C(C)[C@@H]1CC=C(C(O)C2C=CC3C(=O)N(c4ccccc4)C(=O)C3N2Nc2ccc([N+](=O)[O-])cc2)CC1 (some centres undefined)
## Result mid bin

## Task Please classify: O=C1O[C@H](Cc2ccccc2)[C@@H]2[C@H]3C=CCCC=C3CN2[C@H]1Cc1ccc(O)cc1
## Result mid bin

## Task Please classify: COCCOC(=O)N1C(=O)[C@@]2(c3cc(C#Cc4ccc(OC)cc4)ccc31)[C@H](c1ccc(OCCO)cc1)N1[C@H](c3ccccc3)[C@H](c3ccccc3)OC(=O)[C@H]1[C@@H]2C(=O)NC[C@H](O)c1ccccc1
## Result mid bin

## Task Please classify: COC(=O)[C@@]1(Cc2ccccc2)[C@H]2c3cc(C(=O)N(C)C)n(Cc4ccc(C(F)(F)F)nc4)c3C[C@H]2CN1C(=O)c1ccccc1
## Result high bin

## Task Please classify: CCCCC(O)C1C=CC2C(=O)N(c3ccccc3)C(=O)C2N1Nc1ccccc1 (centres undefined)
## Result mid bin

## Task Please classify: CCOC(=O)c1cn(C[C@H](Cc2ccccc2)NC(=O)N[C@H](CO)CCc2oc(C(C)=O)c(C(=O)OC)c2C(=O)OC)nn1
## Result mid bin

## Task Please classify: C=C(COC)C(=O)CC[C@H](OC(=O)c1cccnc1)c1ccc(OCCO)cc1
## Result low bin

## Task Please classify: COc1cc(C(O)C2C=CC3C(=O)N(c4ccccc4)C(=O)C3N2Nc2ccccc2F)cc(OC)c1OC (centres undefined)
## Result mid bin

## Task Please classify: COC(=O)C(CC#Cc1ccc2c(c1)[C@]1(C(=O)N2)[C@H](C(=O)N2CCc3cc(OC)c(OC)cc3C2)[C@H]2C(=O)O[C@H](c3ccccc3)[C@H](c3ccccc3)N2[C@@H]1c1ccccc1OCCO)C(=O)OC
## Result mid bin

## Task Please classify: CC(=O)c1ccc(C(O)C2C=CC3C(=O)N(c4ccccc4)C(=O)C3N2Nc2ccc(C(C)C)cc2)cc1 (centres undefined)
## Result mid bin

## Task Please classify: COCCOC(=O)N1C(=O)[C@@]2(c3ccccc31)[C@H](c1ccc(O)cc1)N1[C@H](c3ccccc3)[C@H](c3ccccc3)OC(=O)[C@H]1[C@@H]2C(=O)N1CCCCCCC1
## Result high bin

## Task Please classify: COc1ccc(C#Cc2ccc3c(c2)[C@]2(C(=O)N3)[C@H](C(=O)O)[C@H]3C(=O)O[C@H](c4ccccc4)[C@H](c4ccccc4)N3[C@@H]2c2ccccc2OCCO)cc1
## Result low bin

## Task Please classify: CN(C)c1ccc(C(O)C2C=CC3C(=O)N(Cc4ccccc4)C(=O)C3N2n2cnnc2)cc1 (centres undefined)
## Result low bin

====

# Assay Method Text: blockers of DNA damage checkpoint Chk1 activation – imaging, HeLa, hydroxyurea, phospho-Chk1 nuclear intensity, primary screen (AID 1187); further: test concentration not given here
# Conditions: hydroxyurea-induced phospho-Chk1 immunofluorescence imaging, higher = more signal
Note to self: values exactly at 0.2 are yes. So z-score at or above 0.2 is yes, below is no.

## Task API: above_or_equal(metric=z-score, cutoff=0.2) for item CC(C)N1C(=O)C[C@@](C(=O)NCCN2CCOCC2)(c2ccc([N+](=O)[O-])cc2)[C@H]1c1ccc(CO)cc1
## Result yes

## Task API: above_or_equal(metric=z-score, cutoff=0.2) for item CN1C(=O)[C@@H]2[C@@H](CC(COc3ccccc3)=C3[C@@H](CCc4ccccc4)OB(O)C[C@@H]32)C1=O
## Result yes

## Task API: above_or_equal(metric=z-score, cutoff=0.2) for item COC(=O)C1(Cc2ccccc2)C=C2C(=C(C)C(=O)C2C)CN1 (stereo not drawn)
## Result yes

## Task API: above_or_equal(metric=z-score, cutoff=0.2) for item COC(=O)[C@@]1(Cc2ccccc2)N=C(c2ccc(OCCCO)cc2)O[C@H]1c1ccccc1CN=[N+]=[N-]
## Result no

## Task API: above_or_equal(metric=z-score, cutoff=0.2) for item O=C(O)[C@H](Cc1ccccc1)n1cc(C2(O)CCCCC2)nn1
## Result no

## Task API: above_or_equal(metric=z-score, cutoff=0.2) for item CC(C)NC(=O)[C@@H]1c2ccccc2C(=O)N(Cc2ccccc2C(F)(F)F)[C@H]1c1ccc(CO)cc1
## Result yes

## Task API: above_or_equal(metric=z-score, cutoff=0.2) for item CCCC=C(CCC)[C@@H](NC(=O)OCC(C)C)c1ccc(C(=O)OC)cc1
## Result no

## Task API: above_or_equal(metric=z-score, cutoff=0.2) for item CCOC(=O)C1=CCC(c2cc3ccccc3[nH]2)N(CCN2CC(C(=O)OCC)=CCC2c2cc3ccccc3[nH]2)C1 (stereo not drawn)
## Result no

====

# Assay Method Text: probe aLefty2 binding to arrayed compounds – biochemical, biotinylated probe, 635/667 nm fluorescence, primary screen (AID 1094);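 further: score merges spot fluorescence near 667 nm with spot signal-to-noise ratio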
# Conditions: small-molecule microarray, higher = more signal
Quantity Name: composite z-score
Number only, please.

Data point: CC(C)C(O)C1C=CC2C(=O)NC(=O)C2N1Nc1ccccn1 (centres undefined) ; composite z-score = 0.0894

Data point: C=CCC(OC(C)=O)[C@@H]1[C@@H](N(Cc2cccc3ccccc23)C(=O)Cc2ccc(OC)cc2)c2cc(OCCCO)ccc2N1C(=O)c1ccc2ccccc2c1 (some centres undefined) ; composite z-score = -0.0042

Data point: [N-]=[N+]=Nc1ccccc1C[C@@]1(C(=O)NCc2ccccc2)N=C(c2ccc(OCCCO)cc2)O[C@@H]1c1ccccc1N=[N+]=[N-] ; composite z-score = 0.469

Data point: CCCC#C[Si](O[C@H](CC)c1cn(Cc2ccccc2)nn1)(C(C)C)C(C)C ; composite z-score = 0.052

====

Give composite z-score for every item shown.
# System: Alpha-bungarotoxin (Bungarus multicinctus) (UniProt P60615)
# Sequence (P60615 whole entry, looked up): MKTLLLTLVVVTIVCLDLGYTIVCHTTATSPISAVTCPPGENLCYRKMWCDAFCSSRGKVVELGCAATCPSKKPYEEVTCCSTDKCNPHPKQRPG
# Assay Method Text: compounds binding labelled alpha-BTX control protein – biochemical, small-molecule microarray, Alexa647 label, 635/667 nm fluorescence, artefact control for SMM control protein annotation, profiling panel (AID 1117)
# Conditions: alpha-BTX-A647 binding fluorescence, higher = more signal
Number only, please.

Data point: COC(=O)C(CC#Cc1ccc2c(c1)[C@]1(C(=O)N2)[C@H](C(=O)N2CCc3cc(OC)c(OC)cc3C2)[C@H]2C(=O)O[C@H](c3ccccc3)[C@H](c3ccccc3)N2[C@@H]1c1ccccc1OCCO)C(=O)OC ; composite z-score = 2.65

Data point: C=C(C)[C@@H]1CC=C(C(O)C2C=CC3C(=O)N(C)C(=O)C3N2Nc2ccc([N+](=O)[O-])cc2[N+](=O)[O-])CC1 (stereo partly drawn) ; composite z-score = 1.95

Data point: COc1ccc([Si](C)(C)[C@H]2[C@H](CC(=O)N3Cc4ccccc4C[C@H]3CO)O[C@@]3(C(=O)N(C)c4c(Br)cc(C)cc43)[C@@H]2C)cc1 ; composite z-score = 0.803

Data point: NC(=O)NCC#Cc1ccc2c(c1)[C@]1(C(=O)N2)[C@H](c2ccc(OCCO)cc2)N2[C@H](c3ccccc3)[C@H](c3ccccc3)OC(=O)[C@H]2[C@@H]1C(=O)NC[C@H](O)c1ccccc1 ; composite z-score = 0.502

Data point: CN(C)CCCC[C@@H]1NC(=O)[C@H]2C[C@@H](C(=O)O)[C@@H](c3ccc(O)cc3)N2C1=O ; composite z-score = 3.2

Data point: C=CCOC(=O)[C@@H]1[C@H]2C(=O)O[C@H](c3ccccc3)[C@H](c3ccccc3)N2[C@H](c2ccc(OCCOC(=O)[C@H]3C[C@H]4C(=O)N[C@@H](CCCCN(C)C)C(=O)N4[C@H]3c3ccc(O)cc3)cc2)[C@@]12C(=O)Nc1ccc(I)cc12 ; composite z-score = 1.51

Data point: C[C@@H]1NC(=O)C([C@@H](C)OCc2ccccc2)NC(=O)[C@@]23C(=O)N[C@@H](Cc4ccccc4)C2[C@H](C)[C@@]2(C)O[C@H]2C3/C=C/C/C=C\CNC1=O (stereo partly drawn) ; composite z-score = -0.0334

Data point: CCOC(=O)C[C@H]1[C@H](OC(=O)c2cc3ccccc3oc2=O)[C@@H](NC(=O)CC(C)C)c2cc(OCCCO)ccc2N1C(=O)Cc1ccc(OC)cc1 ; composite z-score = -0.472

Data point: Cc1ccccc1C(O)C1C=CC2C(=O)N(c3ccccc3)C(=O)C2N1Nc1ccccc1 (stereo not drawn) ; composite z-score = 1.1

Data point: COC(=O)[C@]1(Cc2ccccc2)N=C(c2ccc(OCCCO)cc2)O[C@@H]1c1ccccc1CN=[N+]=[N-] ; composite z-score = 1.01

Data point: CC(C)(C)OC(=O)CC[C@]1(C(=O)NCC(O)CO)N=C(c2ccc(OCCCO)cc2)O[C@H]1c1ccccc1N=[N+]=[N-] (stereo partly drawn) ; composite z-score = 0.931

Data point: CC1CC/C=C\[C@H]2OC34C=CCN(c5ccc(Cl)cc5)C(=O)[C@H]3N(CCCCCCO)C(=O)[C@]4(C)C2C(=O)O1 (stereo partly drawn) ; composite z-score = -0.856

Data point: O=C(N1CCOCC1)[C@@]1(Cc2ccccc2)COC(c2ccc(OCCCO)cc2)=N1 ; composite z-score = 2.35
